# credit: ChEMBL document CHEMBL1149462

- System: P388
- Assay Summary: Cytotoxicity against P388 murine leukemic cell line
- Type: functional, cell-based
- Details: Mus musculus
Quantity Kind: IC50 (µM)

>  <Structure String>
O=c1c2cccc(CO)c2cc2n1Cc1cc3ccccc3nc1-2

>  <Quantity Kind>
IC50

>  <Observed Value>
35.5

$$$$
